All values here come from ChEMBL document CHEMBL4706550.

# Measured target: Neuronal acetylcholine receptor subunit alpha-7 (Homo sapiens, UniProt P36544)
# Sequence (P36544 whole entry): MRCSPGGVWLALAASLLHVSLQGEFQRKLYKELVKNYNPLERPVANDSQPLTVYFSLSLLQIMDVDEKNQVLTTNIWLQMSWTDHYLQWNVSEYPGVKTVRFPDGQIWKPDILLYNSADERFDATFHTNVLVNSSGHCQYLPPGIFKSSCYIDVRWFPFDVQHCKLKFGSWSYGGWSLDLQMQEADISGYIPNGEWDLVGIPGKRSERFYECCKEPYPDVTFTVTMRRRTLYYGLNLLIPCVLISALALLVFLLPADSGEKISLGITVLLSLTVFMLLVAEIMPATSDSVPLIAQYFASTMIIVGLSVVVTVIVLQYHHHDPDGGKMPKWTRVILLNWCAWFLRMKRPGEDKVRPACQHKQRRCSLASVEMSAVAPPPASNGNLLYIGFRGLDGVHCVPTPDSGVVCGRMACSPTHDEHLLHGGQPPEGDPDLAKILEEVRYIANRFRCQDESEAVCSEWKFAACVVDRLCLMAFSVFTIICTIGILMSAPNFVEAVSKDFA
# Protocol description: Antagonist activity at human alpha7 nAChR expressed in Xenopus laevis oocytes assessed as inhibition of Ach-induced current at 100 uM measured at holding potential of -90 mV by two electrode voltage-clamp assay relative to control
# Format: cell-based
# Experimental conditions: Oocyte, filed as antagonist
Outcome measure: inhibition (%)

Past entries and their recorded results:
c1ccc(CN2CCC3(CC2)NC(c2ccccn2)=NO3)cc1 :: 68.7
Cc1cccc(-c2ccc(C3=NOC4(CCN(Cc5ccccc5)CC4)N3)cc2)c1 :: 80.1

a. COc1ccc(C2=NOC3(CCN(Cc4ccccc4)CC3)N2)cc1
b. COc1ccc(-c2ccc(C3=NOC4(CCN(Cc5ccccc5)CC4)N3)cc2)cc1
### Prompt I need your help: which of the pair a , b has higher inhibition? Pick one; state its label.
### Response a
(a: 79.6%, b: 40.5%)
